Where these numbers come from: patent US5324747A

- subject-of-test: HSF-PLA2 (Homo sapiens, UniProt P14555)
- Construct: extracellular enzyme obtained from human synovial fluid (HSF-PLA2); from tissue; host or cells: pooled human synovial fluid, added at 0.1% (v/v)
- Sequence (P14555 21-144): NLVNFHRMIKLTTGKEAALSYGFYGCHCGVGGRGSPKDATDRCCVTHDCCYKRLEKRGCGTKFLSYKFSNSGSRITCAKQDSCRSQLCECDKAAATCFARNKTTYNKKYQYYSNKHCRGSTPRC
- measurement-description: Assay for Inhibition of HSF-PLA2 In Vitro
- Assay type: biochemical
- condition-details: (5 μM); read-out: Inhib of HSF-PLA2, % inhibition
endpoint: inhibition at 5 µM (%)
Answers are plain numbers, in %.

See these solved cases before continuing.
compound="CCCCCCCC/C=C\\CCCCCCCC(=O)Nc1cccc(N(CC(=O)O)CC(=O)O)c1 [Example 51]" endpoint="inhibition at 5 µM" endpoint_result=63
compound="CCCCC/C=C\\C/C=C\\CCCCCCCC(=O)Nc1cccc(N(CC(=O)O)CC(=O)O)c1 [Example 51]" endpoint="inhibition at 5 µM" endpoint_result=67
compound="CCCCCCCCCCCCCCCCCCNC(=O)Nc1cccc(N(CC(=O)O)CC(=O)O)c1 [Example 36e]" endpoint="inhibition at 5 µM" endpoint_result=74

Each of the following entries comes with a recorded value; kindly state inhibition at 5 µM for each.
1. CCCCCCCCCCCCCCCCCCOc1cc(OCC(=O)OC)cc(N(CC(=O)O)CC(=O)O)c1 [Example 58b]
2. CCCCCCCCCCN(CCCCCCCCCC)C(=O)c1cccc(N(CC(=O)O)CC(=O)O)c1 [Example 174]

Solution:
[91, 74]

Reported inhibition at 5 µM ( CCCCCCCCCCCCCCCCCCOc1cc(C(N)=O)cc(N(CC(=O)O)CC(=O)O)c1 [Example 75] ) = 84

====

- subject-of-test: HSF-PLA2 (Homo sapiens, UniProt P14555)
- Construct: extracellular enzyme obtained from human synovial fluid (HSF-PLA2); from tissue; host or cells: pooled human synovial fluid, added at 0.1% (v/v)
- Sequence (P14555 21-144): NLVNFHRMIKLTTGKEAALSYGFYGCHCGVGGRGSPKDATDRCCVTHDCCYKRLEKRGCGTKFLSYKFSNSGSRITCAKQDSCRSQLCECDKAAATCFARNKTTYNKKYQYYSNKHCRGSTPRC
- measurement-description: Assay for Inhibition of HSF-PLA2 In Vitro
- Assay type: biochemical
- condition-details: (1 μM); read-out: Inhib of HSF-PLA2, % inhibition
Kindly supply the reported inhibition at 1 µM values for the records listed here.
Answers are plain numbers, in %.

Each of the following entries comes with a recorded value; kindly state inhibition at 1 µM for each.
1. CCCCCCCCCCCCCCCCCCOc1cc(OCCCOc2cccc([N+](=O)[O-])c2)cc(N(CC(=O)O)CC(=O)O)c1 [Example 58m]
2. CCCCCCCCCCCCCCCCCCOc1cc(NC(C)=O)cc(N(CC(=O)O)CC(=O)O)c1
3. CCCCCCCCCCCCCCNC(=O)Oc1ccc(N(CC(=O)O)CC(=O)O)cc1OC(=O)NCCCCCCCCCCCCCC [Example 119e]
4. CCCCCCCCCCCCCCCCCCOc1cc(SC)cc(N(CC(=O)O)CC(=O)O)c1
5. CCCCCCCCCCOc1cc(OCCCCCCCCCC)cc(N(CC(N)=O)CC(=O)O)c1.N [Example 32, ammonium salt]

Solution:
[79, 98, 33, 88, 48]

Each of the following entries comes with a recorded value; kindly state inhibition at 1 µM for each.
1. CCCCCCCCCCCCCCOc1cc(C(=O)O)cc(N(CC(=O)O)CC(=O)O)c1 [Example 69b]
2. CCCCCCCCCCCCCCCCCCOc1cc(OCCOCCOCCOCCOC)cc(N(CC(=O)O)CC(=O)O)c1
3. CCCCCCCCCCCCCCCCCCOc1cc(N(CC(=O)O)CC(=O)O)cc([S+](C)[O-])c1 (stereo not drawn)
4. CCCCCCCCCCCCCCOc1ccc(N(CC(=O)O)CC(=O)O)cc1OCCCCCCCCCCCCCC

Solution:
[18, 100, 39, 36]
